Reported values of Herbicidal rating TRZAWR for individual entries
Test system: TRZAWR (Wheat, Winter, cv Riband)
assay: Postemergence herbicidal evaluation
Format: in vivo, Triticum aestivum
condition_info: postemergence, rate 0.0156 kg/ha
Please respond with just the number, no unit label.

Worked set:
{"compound": "CC(C)COC(=O)CN1C(=O)CSC1=Nc1cc(-n2c(=O)cc(C(F)(F)F)n(C)c2=O)c(F)cc1Cl", "recorded_number": 3.0}
{"compound": "Cc1ccc(CN2C(=O)CSC2=Nc2cc(-n3c(=O)cc(C(F)(F)F)n(C)c3=O)c(F)cc2Cl)cc1Cl", "recorded_number": 3.0}

For the compound `CC(C)N1C(=O)CSC1=Nc1cc(-n2c(=O)cc(C(F)(F)F)n(C)c2=O)c(F)cc1Cl` , what Herbicidal rating TRZAWR is on record? 4.0

What would you report for `Cn1c(C(F)(F)F)cc(=O)n(-c2cc(N=C3SCC(=O)N3Cc3ccc(C(F)(F)F)cc3)c(Cl)cc2F)c1=O` ? 3.0

Record: `Cn1c(C(F)(F)F)cc(=O)n(-c2cc(N=C3SCC(=O)N3CC(=O)OCC3CCCCC3)c(Cl)cc2F)c1=O` 4.0

Note, next up: C=CCN1C(=O)C(CC(=O)NS(=O)(=O)c2ccccc2)SC1=Nc1cc(-n2c(=O)cc(C(F)(F)F)n(C)c2=O)c(F)cc1Cl (centres unmarked) 3.0

Param item: `Cc1cc(C)cc(CN2C(=O)CSC2=Nc2cc(-n3c(=O)cc(C(F)(F)F)n(C)c3=O)c(F)cc2Cl)c1` 2.0

What about this compound? CCOC(=O)CN1C(=O)C(C(=O)OC(C)(C)C)SC1=Nc1cc(-n2c(=O)cc(C(F)(F)F)n(C)c2=O)c(F)cc1Cl (centres unmarked) 4.0

Next: `Cn1c(C(F)(F)F)cc(=O)n(-c2cc(N=C3SCC(=O)N3Cc3cccc(Cl)c3)c(Cl)cc2F)c1=O` 2.5

Then this compound: `Cn1c(C(F)(F)F)cc(=O)n(-c2cc(N=C3SCC(=O)N3C3CCCC3)c(Cl)cc2F)c1=O` 1.5
